experiment summary: reduced viability of SK-BR-3 breast cancer cells – cell-based, 24 h, human, pilot screen (AID 572);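 note: compound exposure lasted between 18 and 24 h rather than exactly 24 h; 100% = carrier-treated control wells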
reported conditions: SK-BR-3 viability, CellTiter-Glo luminescence, at 10 µM, active compounds read low
This section presents compounds with their documented viability values.
All answers are understood in %, so give the number only.

Example compounds with recorded viability:
| compound | viability, % |
| --- | --- |
| COc1ccc(CCNc2oc(COc3ccccc3Cl)nc2C#N)cc1OC | 90 |
| O=C(Cn1nc(Cc2ccncc2)c2ccccc2c1=O)N1CCc2ccccc2C1 | 83 |
| Cc1c(-n2c(CN3C(=O)c4ccccc4C3=O)nc3ccccc3c2=O)c(=O)n(-c2ccccc2)n1C | 93.5 |
| Cc1cccc(OCCNC(=O)c2ncn[nH]2)c1 | 100 |
| CCOc1ccc2nc(Nc3nc4c(c(=O)[nH]3)CCC4)nc(C)c2c1 | 99.5 |
| O=C(COc1ccc2ccccc2c1)N1CCCC1 | 101 |

With those in mind, consider the next compound.
Ask: // fetch viability given entry `Cn1c(CSc2nc3ccccc3s2)nnc1SCC(=O)NCCN1CCOCC1`
Result: 75

Values were extracted from PubChem BioAssay.
